Assay: Cytotoxicity scoring in coronavirus A59 assay
Assay type: cell-based
Details: mouse, nctc 1469 cells, 20 μg; read-out: toxicity
assay endpoint: cytotoxicity (%)

CCCC12OC3CC4C5CCC6CC(OS(=O)(=O)O)C(OS(=O)(=O)O)CC6(C)C5CCC4(C)C3C(C)(O1)C(CC1(C(C)C)CC1C)O2 (stereo not shown) [HB124] | 25
